I'd be grateful if you could share measured Size (nm) for these entries.
- Assay Comment: LNP size and PDI by dynamic light scattering
- Assay type: physicochemical
- Assay Conditions: mRNA LNP, cationic lipid/DSPC/cholesterol/PEG-lipid 50:10:38.5:1.5
One number for each entry, in nm.

These recorded examples may help you get a feel for the data.
>>> result_value("CCCCCCCC(C(=O)NCCCCCCCCCC(=O)OC(CCCCCC)CCCCCC)N(CCOC(=O)CCN1CCCC1)C(=O)CCCCCCCCCC(=O)OC(CCCCCC)CCCCCC (stereo not shown) [Compound B25]")
64.2
>>> result_value("CCCCCC/C=C\\CCCCCCCC(C(=O)NCCCCCC)N(CCCN(C)C)C(=O)CCCCCCC(=O)OC(CCCCCCCC)CCCCCCCC (stereo not shown) [Compound A40]")
75.94
>>> result_value("CCCCCCCC(C(=O)NCCCCCCCCCC(=O)OC(CCCCCC)CCCCCC)N(COC(=O)CCN(C)C)C(=O)CCCCCCCCCC(=O)OC(CCCCCC)CCCCCC (stereo not shown) [Compound B23]")
68.16
>>> result_value("CCCCCCCC(C(=O)NCCCCCCCCCC(=O)OC(CCCCCC)CCCCCC)N(CCn1ccnc1)C(=O)CCCCCCCCCC(=O)OC(CCCCCC)CCCCCC (stereo not shown) [Compound B18]")
80.68
>>> result_value("CCCCCCCC(C(=O)NCCCCCCCCCC(=O)OC(CCCCCC)CCCCCC)N(CCCN(C)C)C(=O)CCCCCCCCCC(=O)OCC12CC3CC(CC(C3)C1)C2 (stereo not shown) [Compound A17]")
60.77

Give Size (nm) for all compounds that follow.
1. CCCCCCCC(C(=O)NCCCCCCCCCC(=O)OC(CCCCCC)CCCCCC)N(CCCN(CCO)C1CCCC1)C(=O)CCCCCCCCCC(=O)OC(CCCCCC)CCCCCC (stereo not shown) [Compound B12]
2. CCCCCCCC(C(=O)NCCCCCCCCCC(=O)OC(CCCCCC)CCCCCC)N(CCCn1ccnc1)C(=O)CCCCCCCCCC(=O)OC(CCCCCC)CCCCCC (stereo not shown) [Compound B20]

Result string:
[65.03, 93.23]
